Origin of the recorded values: patent US8952192B2

test system: lsr expression in E. coli (lsr-lacZ reporter strains); assay: QS response (lsr expression): AI-2 dependent β-galactosidase production, Miller assay; type: cell-based, Escherichia coli; details: concentration reducing lsr expression (β-galactosidase production) to 50% in the presence of 20 μM exogenously added synthetic DPD; read-out: IC50 of analog (nM) to inhibit QS in E. coli
Hi there, I'd appreciate the recorded IC50 for every entry that follows.
Give bare numbers, in nM.

Below, 2 molecules whose answers are already recorded.
[[record]]
chemical_structure = "CC(C)CC(=O)C(=O)[C@@H](O)CO"
target_under_test = "lsr expression in E. coli (lsr-lacZ reporter strains)"
property = "IC50"
unit_of_measure = "nM"
reported_measurement = 54

[[record]]
chemical_structure = "CCCCCCCC(=O)C(=O)[C@@H](O)CO"
target_under_test = "lsr expression in E. coli (lsr-lacZ reporter strains)"
property = "IC50"
unit_of_measure = "nM"
reported_measurement = 15900


Okay, now this molecule:
Challenge: What value of measured IC50 is listed for CCCCC(=O)C(=O)[C@@H](O)CO ?
Response given: 2970
